Tested on: MOLT-4 leukemia
Test: NCI-60 one-dose screen, 48 h (100 = growth as untreated, 0 = no growth, -100 = all killed)
Details: 10 µM unless noted
Compounds without any hit were thinned out: in the full panel of roughly 83,000, 20% have a hit.
Note to self: growth under 30% means label 1, ties and anything higher get label 0.

Compound	Category
CCOC(=O)C1=C(CSC(=S)N(C2CCCCC2)C2CCCCC2)N(C)C(=O)NC1c1ccccc1 (stereo not given)	label 1
COc1cc(NCCN=C(N)NC(N)=NC(C)C)c2ncccc2c1	label 0
CC(C)C[C@H](NC(=O)[C@H](Cc1ccccc1)n1ccc(N2CCCCC2)cc1=O)B(O)O	label 1
COc1cc2c(cc1OCCCCn1c(-c3cc(=O)c4ccccc4o3)nc3ccccc31)N=C[C@@H]1CCCN1C2=O	label 0
COc1ccc(C(=O)/C=C/c2ccc(/C=C/c3cc(OC)c(OC)c(OC)c3)cc2)cc1	label 1

###

Tested on: NCI/ADR-RES ovarian
Experiment: NCI-60 one-dose screen, 48 h (100 = growth as untreated, 0 = no growth, -100 = all killed)
Conditions: 10 µM unless noted
Compounds without any hit were thinned out: in the full panel of roughly 83,000, 20% have a hit.
Label Met when growth < 80%; otherwise Not met.

Compound	Category
CC1Cc2c(N(C)C)ncnc2N(C)c2ccc(Cl)cc21 (stereo not given)	Met
COC(=O)c1ccc(C)cc1	Not met
O=C1Nc2cc(Cl)ccc2Oc2cc(Oc3ccccc3)ccc21	Met
CCCCCCOc1ccc(C2(Cl)c3ccccc3N(C)c3ccccc32)cc1	Met
C=C1C(=O)O[C@H]2[C@H]1CC/C(Cn1cc(-c3ccccc3C(F)(F)F)nn1)=C\CC[C@@]1(C)O[C@@H]21	Met
COc1cccc2nc(Nc3ccc(NC(=O)c4ccc5ncccc5c4)cc3)ccc12	Not met
O=[N+]([O-])c1cccc(-c2cc(-c3cc(Br)ccc3O)[nH]n2)c1	Met
CCn1cc(C(=O)O)c(=O)c2cc(F)c(N3CCN(S(=O)(=O)c4c(C)cc(C)cc4C)CC3)cc21	Not met
COc1cc(-n2nc(C(=O)Nc3ccc(C(=O)O)cc3)nc2-c2ccccc2)cc(OC)c1OC	Not met
O=C(/C=C/c1ccccc1)n1c(-c2ccc(Cl)cc2)nc2ccccc21	Met

###

System: UACC-62 melanoma
Assay: NCI-60 one-dose screen, 48 h (100 = growth as untreated, 0 = no growth, -100 = all killed)
Settings: 10 µM unless noted
This is part of a sample that, as a whole, favours compounds with a hit. Of some 83,000 tested, about 20% had one in any assay.

Compound	growth, %
CC1Cc2c(N(C)C)ncnc2N(C)c2ccc(O)cc21 (stereo not given)	81.2
COc1cc(C2C3=C(COC3=O)Nc3c2ccc2c3CCCC2)cc2c1OCO2 (stereo not given)	36.4
COc1cc(C2C=C(C)N=C3SC=C(C)N32)cc(OC)c1OC (stereo not given)	-61.3
CCOC(=O)C1=C(C)NC(=O)NC1c1ccc(OCC(=O)N/N=C/c2ccc(Cl)cc2)cc1 (stereo not given)	87.3
C=C1C(=O)O[C@H]2[C@H]1CC/C(Cn1cc(-c3ccc(N)cc3)nn1)=C\CC[C@@]1(C)O[C@@H]21	-37.4
COc1cc(OC)c(C(=O)/C=C/c2ccc(C(F)(F)F)cc2)c(OC)c1	48.2
CC(=O)Nc1nc(C(=O)N2N=C(C)/C(=C/c3ccccc3)C2=O)cs1	114
CC1(C)OC2COC3(C(=O)O)OC(C)(C)OC3C2O1 (stereo not given)	97.7
COc1cc(OC)c(C(=O)/C=C/c2cccc(C#N)c2)c(OC)c1	10.9
O=S(=O)(NCCCNc1cc(-c2cn(-c3ccccc3)nc2-c2cccc(O)c2)ccn1)c1ccc(C(F)(F)F)cc1	27.4
